Catalogue of compounds with associated IC50
system: melanoma cells; assay: MTT assay for cell number; assay type: cell-based; conditions: Tables III-V; read-out: MTT assay IC50
The reply should read as a number followed by its unit.

Check the records and state IC50 for COC(=O)CCC(C)[C@H]1CCC2C3C(CC[C@@]21C)[C@@]1(C)CC[C@@H](NCCCNCCCCN)C[C@H]1C[C@H]3O (some centres unmarked) [drawing 116] 12 mg/L

Check the records and state IC50 for COC(=O)CCC(C)[C@H]1CCC2C3C[C@@H](O)[C@H]4C[C@@H](NCCCNCCCCN)CC[C@]4(C)C3CC[C@@]21C (some centres unmarked) 12 mg/L

Check the records and state IC50 for COC(=O)CCC(C)[C@H]1CCC2C3C[C@@H](O)[C@H]4C[C@@H](NCCCNCCCCNCCCN)CC[C@]4(C)C3CC[C@@]21C (some centres unmarked) 10 mg/L

Check the records and state IC50 for COC(=O)CCC(C)[C@H]1CCC2C3C(CC[C@@]21C)[C@@]1(C)CC[C@H](NCCCNCCCCNCCCN)C[C@H]1C[C@H]3O (some centres unmarked) 7.9 mg/L

Check the records and state IC50 for "COC(=O)CC[C@@H](C)[C@H]1CC[C@H]2[C@@H]3CC[C@@H]4C[C@H](NCCCNCCCCNCCCN)CC[C@]4(C)[C@H]3CC[C@]12C" 14.5 mg/L

Check the records and state IC50 for COC(=O)CCC(C)[C@H]1CCC2C3C(CC[C@@]21C)[C@@]1(C)CC[C@@H](NCCCNCCCCNCCCN)C[C@@H]1C[C@H]3O (some centres unmarked) 7.8 mg/L

Check the records and state IC50 for COC(=O)CCC(C)[C@H]1CCC2C3C(CC[C@@]21C)[C@@]1(C)CC[C@H](NCCCNCCCCNCCCN)C[C@@H]1C[C@H]3O (some centres unmarked) [drawing 115] 8.1 mg/L

Check the records and state IC50 for COC(=O)CCC(C)[C@H]1CCC2C3C[C@@H](O)[C@H]4C[C@@H](NCCN)CC[C@]4(C)C3CC[C@@]21C (some centres unmarked) 0.8 mg/L

Check the records and state IC50 for COC(=O)CCC(C)[C@H]1CCC2C3C[C@@H](O)[C@H]4C[C@H](NCCN)CC[C@]4(C)C3CC[C@@]21C (some centres unmarked) 2.9 mg/L

---

assay: PBMC toxicity; settings: human
endpoint: cytotoxicity at 14 µM (%)
Quick note: give the figure in %, leave out the unit.

Check the records and state cytotoxicity at 14 µM for CC(C)[C@@H](CC[C@@H](C)[C@H]1CC[C@H]2[C@@H]3[C@H](O)C[C@H]4C[C@@H](NCCCNCCCCNCCCN)CC[C@]4(C)[C@H]3CC[C@]12C)OS(=O)(=O)O [Compound 1436, reference compound] 0

---

Test system: splenocytes
Assay: mitogen proliferation assay (splenocytes of treated mice, Con A)
Format: in vivo
Details: mouse, in vivo
Experimental: For the attached Tables, the mitogen proliferation assay was performed by treating mice (male or female) with various amounts of the aminosterol test compounds. Some time later (typically between 2 hours and 14 days), the mice are sacrificed and their spleens removed. […] Cell proliferation is monitored either by direct cell counting or by measurement of the incorporation of radioactive thymidine.
endpoint: potency in the mitogen proliferation assay (in words)

COC(=O)CC[C@@H](C)[C@H]1CC[C@H]2[C@@H]3C[C@@H](O)[C@H]4C[C@@H](NCCCNCCCCNCCCN)CC[C@]4(C)[C@H]3CC[C@]12C [Compound 466]	substantial potency
COC(=O)CC[C@@H](C)[C@H]1CC[C@H]2[C@@H]3CC[C@@H]4C[C@H](NCCCNCCCCNCCCN)CC[C@]4(C)[C@H]3CC[C@]12C [Compound 569]	substantial potency
COC(=O)CC[C@@H](C)[C@H]1CC[C@H]2[C@@H]3CC[C@H]4C[C@@H](NCCCNCCCCNCCCN)CC[C@]4(C)[C@H]3CC[C@]12C [Compound 459]	substantial potency

---

Catalogue of molecules with associated IC50
test system: melanoma cells; assay: MTT assay for cell number; assay type: cell-based; conditions: Tables III-V; read-out: MTT assay IC50
Quick note: give the figure in mg/L, leave out the unit.

Look over these answered cases.
COC(=O)CCC(C)[C@H]1CCC2C3CC[C@H]4C[C@H](NCCCNCCCCNCCCN)CC[C@]4(C)C3CC[C@@]21C (some centres unmarked) [drawing 118]	13
CC(C)[C@@H](CC[C@@H](C)[C@H]1CC[C@H]2[C@@H]3[C@H](O)C[C@H]4C[C@@H](NCCCNCCCCNCCCN)CC[C@]4(C)[C@H]3CC[C@]12C)OS(=O)(=O)O [Compound 1436, reference compound]	7.8
COC(=O)CCC(C)[C@H]1CCC2C3CC[C@H]4C[C@@H](NCCCNCCCCNCCCN)CC[C@]4(C)C3CC[C@@]21C (some centres unmarked) [drawing 103]	5
COC(=O)CCC(C)[C@H]1CCC2C3C(CC[C@@]21C)[C@@]1(C)CC[C@H](NCCN)C[C@H]1C[C@H]3O (some centres unmarked)	5.3

Next up:
Check the records and state IC50 for COC(=O)CCC(C)[C@H]1CCC2C3CC[C@@H]4C[C@H](NCCN)CC[C@]4(C)C3C[C@H](O)[C@@]21C (some centres unmarked) [drawing 109] 2.4
